The reader will find reported Kd values listed item by item below.
- test_system: T1, SARS-CoV-2 S1 (aa16-685) (Wuhan) (SARS-CoV-2 Wuhan, UniProt P0DTC2 16-685)
- T1 construct: NRC; FLAG, 6xHis tags
- protocol: SPR, antigen on chip
Write the value in nM as a bare number.

| binder | reported_property | assay_result |
| --- | --- | --- |
| NRCoV2-04 VHH (VHH) VHH: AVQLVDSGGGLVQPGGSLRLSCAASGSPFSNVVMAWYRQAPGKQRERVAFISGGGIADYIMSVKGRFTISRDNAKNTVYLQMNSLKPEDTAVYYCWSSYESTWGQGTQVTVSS | Kd | 11.2 |

GET /value?item= NRCoV2-SR13 VHH (VHH) VHH: EVQLVESGGGLVTTGGSLRLSCATSGSRFGSKHMAWYRQAPGKQRDLVAAISSGGSTHYGSSVKGRFTISRDNAKSTVYLQMNSLNPEDTAVFYCNMGGWDYRSNTYIPGSRSDYWGQGTQVTVSS &field=Kd returns 2.43

// Kd lookup, binder = NRCoV2-SR03 VHH (VHH) VHH: AVQLVDSGGGLVQAGGSLRLSCAASGSIFSNNHMGWYRQAPGKQRELVAAISSGGKTNYADFAKGRFTISRDNAKNMVYLQMNSLKPEDTAVYYCNRGGWEYRSSYYIMGPHWGQGTQVTVSS , result: 1.13

Form: binder = NRCoV2-SR16 VHH (VHH) VHH: QVQLVQSAGGLVQAGGSLRLSCVVSGTTFSRYHMGWHRQAPGKQRDFVAGISTSGAVTYADSAKGRFTISRDNAKNTVYLEMNSLKLEDTALYYCNTGGWDYRSSTFIMGLNWGQGTQVTVSS ; Kd = 1.55
